system: Spleen; experiment: Drug level in immunosuppressed Swiss Webster mouse spleen with disseminated aspergillosis assessed as compound level per gram of tissue at 10 mg/kg/day, iv for 7 days measured on day 8; assay type: ADME, organism-based; set-up: route intravenous; conditions: in vivo, 168 h
Starred links: 1 amine or outer side, 2 acyl side, 3 side chain; linkers in the order of their positions; H or OH if unused. Positions of bridges follow the written chain, without caps; N, C: chain ends. Non-standard residues stand in square brackets, D forms with d. Residues, ends and D or L forms follow the SMILES beside them. *: point of attachment. hTyr(3S-OH,4S-OH,3'-OSO3H) = N[C@H](C(=O)O)[C@H](O)[C@@H](O)c1ccc(O)c(OS(=O)(=O)O)c1; Orn(4R-OH,5R-OH) = O=C([C@H](C[C@@H](O)[C@@H](O)N[*:3])N[*:1])[*:2]; Pro(3S-OH,4S-Me) = C[C@H]1CN[C@H](C(=O)O)[C@H]1O; X1 = CCCCCOc1ccc(-c2cc(-c3ccc(C(=O)*)cc3)no2)cc1; Gln(3R-OH) = NC(=O)C[C@@H](O)[C@H](N)C(=O)O; Hyp = O=C(O)[C@@H]1C[C@@H](O)CN1
Measured Endpoint: tissue concentration (µg/g)
Numbers only, in µg/g.

Fill in tissue concentration for record CCCCCOc1ccc(-c2cc(-c3ccc(C(=O)N[C@H]4C[C@@H](O)[C@@H](O)NC(=O)[C@@H]5[C@@H](O)[C@@H](C)CN5C(=O)[C@H]([C@H](O)CC(N)=O)NC(=O)[C@H]([C@H](O)[C@@H](O)c5ccc(O)c(OS(=O)(=O)O)c5)NC(=O)[C@@H]5C[C@@H](O)CN5C(=O)[C@H]([C@@H](C)O)NC4=O)cc3)no2)cc1 [MICAFUNGIN] (X1-[Orn(4R-OH,5R-OH)]T[Hyp][hTyr(3S-OH,4S-OH,3'-OSO3H)][Gln(3R-OH)][Pro(3S-OH,4S-Me)]; lactam 1-C)
33.6

---

system: Kidney; test: Drug level in immunosuppressed Swiss Webster mouse Kidney with disseminated aspergillosis assessed as compound level per gram of tissue at 15 mg/kg/day, iv for 7 days measured on day 8; format: ADME, organism-based; set-up: route intravenous; conditions: in vivo, 168 h
Starred links: 1 amine or outer side, 2 acyl side, 3 side chain; linkers in the order of their positions; H or OH if unused. Positions of bridges follow the written chain, without caps; N, C: chain ends. Non-standard residues stand in square brackets, D forms with d. Residues, ends and D or L forms follow the SMILES beside them. *: point of attachment. hTyr(3S-OH,4S-OH,3'-OSO3H) = N[C@H](C(=O)O)[C@H](O)[C@@H](O)c1ccc(O)c(OS(=O)(=O)O)c1; Orn(4R-OH,5R-OH) = O=C([C@H](C[C@@H](O)[C@@H](O)N[*:3])N[*:1])[*:2]; Pro(3S-OH,4S-Me) = C[C@H]1CN[C@H](C(=O)O)[C@H]1O; X1 = CCCCCOc1ccc(-c2cc(-c3ccc(C(=O)*)cc3)no2)cc1; Gln(3R-OH) = NC(=O)C[C@@H](O)[C@H](N)C(=O)O; Hyp = O=C(O)[C@@H]1C[C@@H](O)CN1
Measured Endpoint: tissue concentration (µg/g)
One number for each entry, in µg/g.

Fill in tissue concentration for record CCCCCOc1ccc(-c2cc(-c3ccc(C(=O)N[C@H]4C[C@@H](O)[C@@H](O)NC(=O)[C@@H]5[C@@H](O)[C@@H](C)CN5C(=O)[C@H]([C@H](O)CC(N)=O)NC(=O)[C@H]([C@H](O)[C@@H](O)c5ccc(O)c(OS(=O)(=O)O)c5)NC(=O)[C@@H]5C[C@@H](O)CN5C(=O)[C@H]([C@@H](C)O)NC4=O)cc3)no2)cc1 [MICAFUNGIN] (X1-[Orn(4R-OH,5R-OH)]T[Hyp][hTyr(3S-OH,4S-OH,3'-OSO3H)][Gln(3R-OH)][Pro(3S-OH,4S-Me)]; lactam 1-C)
22.5
